# TARGET_OR_SYSTEM: T1, PSMA Fab (006 PSMA Fab)
# T1 construct: also called Anti-PSMA Fab; anti-PSMA Fab
# METHOD_DESCRIPTION: clonal phage ELISA on captured PSMA Fab, wells pre-incubated with PSMA antigen as competitor
Where no end group is shown, it is not given here.
Tick Satisfied if Phage binding ELISA signal, Anti-PSMA Fab in presence of PSMA antigen is 0.08 or greater. Tick Not satisfied if Phage binding ELISA signal, Anti-PSMA Fab in presence of PSMA antigen is less than 0.08.

Form field: Phage binding ELISA signal, Anti-PSMA Fab in presence of PSMA antigen at least 0.08? Entry: HEHFCRPLWMCTGL (peptide, not shown: large carriers, Clonal phage of the Peptide-180 library, tested as crude supernatant) [Phage-3195]
Not satisfied

// inclusive: Phage binding ELISA signal, Anti-PSMA Fab in presence of PSMA antigen at least 0.08? input: ADLRCVPEWMCMGI (peptide, not shown: large carriers, Clonal phage of the Peptide-180 library, tested as crude supernatant) [Phage-3190]
Not satisfied

In plain terms: is recorded Phage binding ELISA signal, Anti-PSMA Fab in presence of PSMA antigen at least 0.08 for LSPMCVPQWMCSGF (peptide, not shown: large carriers, Clonal phage of the Peptide-180 library, tested as crude supernatant) [Phage-3197] ?
Satisfied

Could you tell me if the measured Phage binding ELISA signal, Anti-PSMA Fab in presence of PSMA antigen of LEALCVPRWMCEGF (peptide, not shown: large carriers, Clonal phage of the Peptide-180 library, tested as crude supernatant) [Phage-3189] reaches 0.08 or more?
Satisfied

Quick check, Phage binding ELISA signal, Anti-PSMA Fab in presence of PSMA antigen >= 0.08? FDRVCKPEWMCNGL (peptide, not shown: large carriers, Clonal phage of the Peptide-180 library, tested as crude supernatant) [Phage-3198]
Not satisfied

Textbook exercise: given the entry AAPMCIPAWMCHGF (peptide, not shown: large carriers, Clonal phage of the Peptide-180 library, tested as crude supernatant) [Phage-3187] , state whether its Phage binding ELISA signal, Anti-PSMA Fab in presence of PSMA antigen is greater than or equal to 0.08.
Satisfied

Confirm if Phage binding ELISA signal, Anti-PSMA Fab in presence of PSMA antigen reported for the binder DMRVCKPEWMCTGL (peptide, not shown: large carriers, Clonal phage of the Peptide-180 library, tested as crude supernatant) [Phage-3188] is 0.08 or above.
Satisfied

Reported Phage binding ELISA signal, Anti-PSMA Fab in presence of PSMA antigen at or above 0.08? EVVMCRPLWMCSGF (peptide, not shown: large carriers, Clonal phage of the Peptide-180 library, tested as crude supernatant) [Phage-3192]
Satisfied

Entry GEAVCIPRWMCDGF (peptide, not shown: large carriers, Clonal phage of the Peptide-180 library, tested as crude supernatant) [Phage-3193] : is its Phage binding ELISA signal, Anti-PSMA Fab in presence of PSMA antigen no less than 0.08?
Satisfied

Record VEVRCVPAWMCTGF (peptide, not shown: large carriers, Clonal phage of the Peptide-180 library, tested as crude supernatant) [Phage-3196] ; criterion: Phage binding ELISA signal, Anti-PSMA Fab in presence of PSMA antigen no lower than 0.08. Met?
Satisfied

Check this binder for Phage binding ELISA signal, Anti-PSMA Fab in presence of PSMA antigen at or above 0.08: QHWQCVPRWMCDGF (peptide, not shown: large carriers, Clonal phage of the Peptide-180 library, tested as crude supernatant) [Phage-3191]
Satisfied

Has DMPLCIPAWMCAGF (peptide, not shown: large carriers, cysteine pairing not given here; also: fused to phage pIII, junction sequence not given here, Clonal phage of the Peptide-180 library, tested as crude supernatant) [Phage-3194] a recorded Phage binding ELISA signal, Anti-PSMA Fab in presence of PSMA antigen greater than or equal to 0.08?
Not satisfied
